Experiment: Cytotoxicity on the MRC-5 cell line (resazurin)
Format: cell-based
Conditions: human, MRC-5SV2 cells; MRC-5SV2, 3 days; value in parentheses
// returns no unless IC50 at 3 days is strictly below 0.8 µg/mL, in which case yes

MOLECULE	CLASS_LABEL
Nc1cc(-c2ccc(F)cc2)nc2ccc(Nc3cc(N4CCNCC4)ncn3)cc12	yes
Nc1nc(Nc2ccc3nc(-c4ccc(F)cc4)ccc3c2)cc(N2CCNCC2)n1	no
CNCCN(C)c1cc(Nc2ccc3nc(-c4ccc(F)cc4)cc(N)c3c2)nc(N)n1	no
Nc1nc(Cl)cc(Nc2ccc3nc(-c4ccc(F)cc4)cc(N)c3c2)n1	yes
CN(C)c1cc(Nc2ccc3nc(-c4ccc(F)cc4)cc(N)c3c2)nc(N)n1	yes
Nc1nc(Nc2ccc3nc(-c4ccc(F)cc4)cc(N)c3c2)cc(N2CCNCC2)n1	no
Cc1cccc(-c2cc(Nc3ccc4nc(-c5ccc(F)cc5)cc(N)c4c3)nc(N)n2)c1 [Compound 1, reference compound]	yes
Fc1ccc(-c2ccc3cc(Nc4cc(N5CCNCC5)ncn4)ccc3n2)cc1	no
Nc1nc(Nc2ccc3nc(-c4ccc(F)cc4)cc(N)c3c2)cc(N2CCC(CO)CC2)n1	no
CN(CCO)c1cc(Nc2ccc3nc(-c4ccc(F)cc4)cc(N)c3c2)nc(N)n1	no
Nc1nc(Nc2ccc3nc(-c4ccc(F)cc4)cc(N)c3c2)cc(OCCO)n1	no
Nc1nc(Nc2ccc3nc(-c4ccc(F)cc4)cc(N)c3c2)cc(N2CCC(N)CC2)n1	no
NCC1CCN(c2cc(Nc3ccc4nc(-c5ccc(F)cc5)cc(N)c4c3)nc(N)n2)CC1	no
CCOc1cc(Nc2ccc3nc(-c4ccc(F)cc4)cc(N)c3c2)nc(N)n1	yes
CC(C)(C)OC(=O)NC1CCN(c2cc(Nc3ccc4nc(-c5ccc(F)cc5)cc(N)c4c3)nc(N)n2)CC1	yes

* * *

Tested on: E. coli (ATCC 25922, wild-type)
Assay: MIC on ESKAPE pathogens, E. coli wild-type
Assay type: cell-based
Conditions: Escherichia coli, ATCC25922; E. coli ATCC 25922, wild-type; read-out: MIC Ec WT

COMPOUND_STRUCTURE_STRING	SIGN_QUALIFIER	MIC (mg/L)
Nc1cc(-c2ccc(F)cc2)nc2ccc(Nc3cc(N4CCNCC4)ncn3)cc12	>	64
CN(CCO)c1cc(Nc2ccc3nc(-c4ccc(F)cc4)cc(N)c3c2)nc(N)n1	=	16
Fc1ccc(-c2ccc3cc(Nc4cc(N5CCNCC5)ncn4)ccc3n2)cc1	>	64
Nc1cc(-c2ccc(F)cc2)nc2ccc(Nc3cc(Cl)ncn3)cc12	>	64
Nc1nc(Nc2ccc3nc(-c4ccc(F)cc4)cc(N)c3c2)cc(=O)[nH]1	=	32
Nc1nc(Nc2ccc3nc(-c4ccc(F)cc4)cc(N)c3c2)cc(N2CCC(N)CC2)n1	=	64
Nc1nc(Nc2ccc3nc(-c4ccc(F)cc4)cc(N)c3c2)cc(N2CCOCC2)n1	=	64
CN(C)c1cc(Nc2ccc3nc(-c4ccc(F)cc4)cc(N)c3c2)nc(N)n1	=	32

* * *

Each entry below carries its recorded IC50.
Molecular target: MsNDH-2 (Mycolicibacterium smegmatis)
Assay: Inhibition of MsNDH-2 (NADH oxidation with menadione, absorbance at 340 nm)
Assay type: biochemical, M. smegmatis
Settings: same IC50 given in μg/mL to assist comparisons with MICs

COMPOUND	SIGN_QUALIFIER	IC50 [µM]
Nc1cc(-c2ccc(F)cc2)nc2ccc(Nc3cc(Cl)ncn3)cc12	=	5.19
NCC1CCN(c2cc(Nc3ccc4nc(-c5ccc(F)cc5)cc(N)c4c3)nc(N)n2)CC1	=	6.98
CN(C)C1CCN(c2cc(Nc3ccc4nc(-c5ccc(F)cc5)cc(N)c4c3)nc(N)n2)CC1	>	99.5
Nc1nc(Nc2ccc3nc(-c4ccc(F)cc4)cc(N)c3c2)cc(N2CCOCC2)n1	>	99.7
Fc1ccc(-c2ccc3cc(Nc4cc(N5CCNCC5)ncn4)ccc3n2)cc1	=	24
Cc1cccc(-c2cc(Nc3ccc4nc(-c5ccc(F)cc5)cc(N)c4c3)nc(N)n2)c1 [Compound 1, reference compound]	=	1.6
CN1CCCC(COc2cc(Nc3ccc4nc(-c5ccc(F)cc5)cc(N)c4c3)nc(N)n2)C1 (centres unmarked)	=	13.7
CCOc1cc(Nc2ccc3nc(-c4ccc(F)cc4)cc(N)c3c2)nc(N)n1	=	5.38

* * *

Tested on: E. coli (ΔtolC efflux-defective mutant, isogenic to ATCC 25922)
Experiment: microbe, parasite or virus in culture
Assay type: cell-based
Conditions: Escherichia coli, ATCC25922, read-out: MIC Ec ΔtolC

COMPOUND	VALUE_UNIT	MIC
NCC1CCN(c2cc(Nc3ccc4nc(-c5ccc(F)cc5)cc(N)c4c3)nc(N)n2)CC1 [Compound 8h]	µg/mL	16
CC(C)(C)OC(=O)NCC1CCN(c2cc(Nc3ccc4nc(-c5ccc(F)cc5)cc(N)c4c3)nc(N)n2)CC1 [Compound 8g]	µg/mL	4
CN1CCCC(COc2cc(Nc3ccc4nc(-c5ccc(F)cc5)cc(N)c4c3)nc(N)n2)C1 (centres unmarked) [Compound 9c]	µg/mL	16
CN1CCN(c2cc(Nc3ccc4nc(-c5ccc(F)cc5)cc(N)c4c3)nc(N)n2)CC1 [Compound 8c]	µg/mL	16
Nc1nc(Cl)cc(Nc2ccc3nc(-c4ccc(F)cc4)cc(N)c3c2)n1 [Compound 7]	µg/mL	64
Nc1nc(Nc2ccc3nc(-c4ccc(F)cc4)cc(N)c3c2)cc(N2CCC(O)CC2)n1 [Compound 8p]	µg/mL	32
Nc1nc(Nc2ccc3nc(-c4ccc(F)cc4)cc(N)c3c2)cc(=O)[nH]1 [Compound 12]	µg/mL	16
Nc1nc(Nc2ccc3nc(-c4ccc(F)cc4)cc(N)c3c2)cc(N2CCCC(O)C2)n1 (centres unmarked) [Compound 8o]	µg/mL	16

* * *

Test system: E. coli (ΔtolC efflux-defective mutant, isogenic to ATCC 25922)
Assay: microbe, parasite or virus in culture
Type: cell-based
Conditions: Escherichia coli, ATCC25922, read-out: MIC Ec ΔtolC
MEASUREMENT_LABEL: MIC (µg/mL)

MOLECULE	MEASUREMENT_LABEL	SIGN_QUALIFIER	TEST_RESULT
Nc1nc(Nc2ccc3nc(-c4ccc(F)cc4)ccc3c2)cc(N2CCNCC2)n1	MIC	=	8
CC(C)(C)OC(=O)NC1CCN(c2cc(Nc3ccc4nc(-c5ccc(F)cc5)cc(N)c4c3)nc(N)n2)CC1	MIC	=	8
Nc1cc(-c2ccc(F)cc2)nc2ccc(Nc3cc(Cl)ncn3)cc12	MIC	>	64
Cc1cccc(-c2cc(Nc3ccc4nc(-c5ccc(F)cc5)cc(N)c4c3)nc(N)n2)c1 [Compound 1, reference compound]	MIC	=	8
Nc1nc(Nc2ccc3nc(-c4ccc(F)cc4)cc(N)c3c2)cc(N2CCOCC2)n1	MIC	=	16
CN(CCO)c1cc(Nc2ccc3nc(-c4ccc(F)cc4)cc(N)c3c2)nc(N)n1	MIC	=	8
CC(C)N1CCN(c2cc(Nc3ccc4nc(-c5ccc(F)cc5)cc(N)c4c3)nc(N)n2)CC1	MIC	=	32
CN(C)c1cc(Nc2ccc3nc(-c4ccc(F)cc4)cc(N)c3c2)nc(N)n1	MIC	=	2
Fc1ccc(-c2ccc3cc(Nc4cc(N5CCNCC5)ncn4)ccc3n2)cc1	MIC	=	8
Nc1nc(Nc2ccc3nc(-c4ccc(F)cc4)cc(N)c3c2)cc(N2CCC(N)CC2)n1	MIC	=	16

* * *

Each entry below carries its recorded IC50.
Target: MsNDH-2 (Mycolicibacterium smegmatis, UniProt A0QYD6)
Sequence (A0QYD6 1-457): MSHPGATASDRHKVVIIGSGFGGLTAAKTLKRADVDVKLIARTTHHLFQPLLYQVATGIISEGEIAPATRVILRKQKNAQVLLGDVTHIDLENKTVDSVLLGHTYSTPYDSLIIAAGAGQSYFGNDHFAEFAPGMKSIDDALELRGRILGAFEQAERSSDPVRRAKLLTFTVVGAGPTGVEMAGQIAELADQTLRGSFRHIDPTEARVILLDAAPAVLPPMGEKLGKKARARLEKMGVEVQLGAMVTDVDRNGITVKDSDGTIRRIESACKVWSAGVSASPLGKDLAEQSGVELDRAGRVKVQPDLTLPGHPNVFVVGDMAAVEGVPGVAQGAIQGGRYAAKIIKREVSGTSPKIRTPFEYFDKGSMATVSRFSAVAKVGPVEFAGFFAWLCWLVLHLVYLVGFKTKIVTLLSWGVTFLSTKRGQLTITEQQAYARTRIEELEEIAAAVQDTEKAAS
Test: Inhibition of MsNDH-2 (NADH oxidation with menadione, absorbance at 340 nm)
Type: biochemical, M. smegmatis
Settings: same IC50 given in μg/mL to assist comparisons with MICs

COMPOUND_STRUCTURE_STRING	IC50
Nc1nc(Nc2ccc3nc(-c4ccc(F)cc4)cc(N)c3c2)cc(N2CCNCC2)n1	9.76 µM
Nc1nc(Nc2ccc3nc(-c4ccc(F)cc4)cc(N)c3c2)cc(N2CCC(N)CC2)n1	21.4 µM
Nc1nc(Nc2ccc3nc(-c4ccc(F)cc4)cc(N)c3c2)cc(OCCO)n1	12.8 µM
CN1CCN(c2cc(Nc3ccc4nc(-c5ccc(F)cc5)cc(N)c4c3)nc(N)n2)CC1	40.5 µM
Nc1cc(-c2ccc(F)cc2)nc2ccc(Nc3cc(N4CCNCC4)ncn3)cc12	20.9 µM
Nc1nc(Nc2ccc3nc(-c4ccc(F)cc4)cc(N)c3c2)cc(=O)[nH]1	> 19.9 µM
CC(C)(C)OC(=O)NC1CCN(c2cc(Nc3ccc4nc(-c5ccc(F)cc5)cc(N)c4c3)nc(N)n2)CC1	0.918 µM
Nc1nc(Nc2ccc3nc(-c4ccc(F)cc4)cc(N)c3c2)cc(N2CCN(CCO)CC2)n1	> 99 µM
CN(CCO)c1cc(Nc2ccc3nc(-c4ccc(F)cc4)cc(N)c3c2)nc(N)n1	16.2 µM
Nc1nc(Nc2ccc3nc(-c4ccc(F)cc4)ccc3c2)cc(N2CCNCC2)n1	31.3 µM
CC(C)N1CCN(c2cc(Nc3ccc4nc(-c5ccc(F)cc5)cc(N)c4c3)nc(N)n2)CC1	18.8 µM
CN(C)c1cc(Nc2ccc3nc(-c4ccc(F)cc4)cc(N)c3c2)nc(N)n1	2.82 µM
CNCCN(C)c1cc(Nc2ccc3nc(-c4ccc(F)cc4)cc(N)c3c2)nc(N)n1	18.5 µM
Nc1nc(Cl)cc(Nc2ccc3nc(-c4ccc(F)cc4)cc(N)c3c2)n1	3.15 µM
CC(C)(C)OC(=O)NCC1CCN(c2cc(Nc3ccc4nc(-c5ccc(F)cc5)cc(N)c4c3)nc(N)n2)CC1	0.537 µM
